# System: Noggin (protein binding on small-molecule microarray)
# test-name: Noggin binders on small-molecule microarray, primary screen, biochemical, 635/667 nm fluorescence (AID 1095);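 also: score merges 667 nm feature fluorescence with signal to noise over triplicate slides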
# condition: 635 nm fluorescence, higher = more signal
observable: composite z-score
Give bare numbers.

compound: CN(C)CCCCNC(=O)[C@H]1C[C@H]2C(=O)N3CCC[C@H]3C(=O)N2[C@H]1c1ccc(O)cc1
composite z-score: -0.439
//
compound: [N-]=[N+]=NCc1ccccc1C[C@@]1(C(=O)N2CCCCC2)N=C(c2ccc(OCCCO)cc2)O[C@@H]1c1ccccc1N=[N+]=[N-]
composite z-score: 0.244
//
compound: C=CCOC(=O)[C@@H]1[C@H]2C(=O)O[C@H](c3ccccc3)[C@H](c3ccccc3)N2[C@H](c2ccc(OCCOC(=O)[C@H]3C[C@H]4C(=O)N[C@@H](CCCCN(C)C)C(=O)N4[C@H]3c3cccc(OCCO)c3)cc2)[C@@]12C(=O)Nc1ccc(I)cc12
composite z-score: 1.03
//
compound: CC(C)(C)OC(=O)CC[C@@]1(C(=O)O)N=C(c2ccc(OCCCO)cc2)O[C@@H]1c1ccccc1
composite z-score: -0.423
//
compound: COCCOC(=O)N1C(=O)[C@@]2(c3cc(C#Cc4ccc(OC)cc4)ccc31)[C@H](C(=O)NC[C@H](O)c1ccccc1)[C@H]1C(=O)O[C@H](c3ccccc3)[C@H](c3ccccc3)N1[C@@H]2c1ccc(O)cc1
composite z-score: 0.793

Below are some compounds; for each one, tell me its composite z-score.
1. CCCCN1CC=CC23O[C@@H]4C=CCOC(=O)[C@@H]4[C@H]2C(=O)N(C(C)CO)[C@@H]3C1=O (stereo partly drawn)
2. NC(=O)NCC#Cc1ccc2c(c1)[C@]1(C(=O)N2)[C@H](C(=O)O)[C@H]2C(=O)O[C@H](c3ccccc3)[C@H](c3ccccc3)N2[C@@H]1c1ccccc1OCCO
3. Cc1ccc(S[C@]2(C(=O)NCCN3CCOCC3)CC(=O)N(Cc3ccccc3C(F)(F)F)[C@@H]2c2ccc(CO)cc2I)cc1

OUT:
-0.929
1.01
-0.586

Below are some compounds; for each one, tell me its composite z-score.
1. CC(CO)N1C(=O)[C@@H]2C3C(=O)OCCC/C=C\[C@H]3OC23C=CCN(Cn2nnc4ccccc42)C(=O)[C@@H]13 (stereo partly drawn)
2. COc1cc2c(cc1OC)CN(C(=O)[C@H]1[C@@H]3C(=O)O[C@@H](c4ccccc4)[C@@H](c4ccccc4)N3[C@@H](c3ccc(OCCO)cc3)[C@]13C(=O)Nc1ccc(C#CC4(O)CCCCCC4)cc13)CC2
3. COc1cc(CO)cc(I)c1O[C@H]1C=C(C(=O)NCCO)C[C@@H](N(CC2CCCCC2)C(=O)c2ccc(C(F)(F)F)cc2)[C@@H]1O
4. COc1ccc(C(O)C2C=CC3C(=O)N(c4ccccc4)C(=O)C3N2Nc2ccccc2)cc1OCc1ccccc1 (stereo not drawn)
5. COc1ccc(C(O)C2C=CC3C(=O)N(C)C(=O)C3N2N2CCCCC2)cc1 (stereo not drawn)
6. COCCOC(=O)N1C(=O)[C@@]2(c3cc(C#CCC(C(=O)OC)C(=O)OC)ccc31)[C@H](c1ccc(OCCO)cc1)N1[C@H](c3ccccc3)[C@H](c3ccccc3)OC(=O)[C@H]1[C@@H]2C(=O)N1CCN(c2ncccn2)CC1
7. O=C1NC(=O)C2C1C=CC(C(O)c1ccc3c(c1)OCO3)N2Nc1ccccn1 (stereo not drawn)

OUT:
1: -0.254; 2: 1.47; 3: 0.586; 4: 0.88; 5: 0.158; 6: 1.17; 7: 0.233
